- Test system: fungal or bacterial pathogens
- Assay type: cell-based
- assay-setup: components for enhancing function of human-derived Janthinobacterium lividum
quantity: Concentration Range of Efficacy

Asked: Concentration Range of Efficacy for `OC[C@H]1O[C@@H]2O[C@H]3[C@H](O)[C@@H](O)[C@@H](O[C@H]4[C@H](O)[C@@H](O)[C@@H](O[C@H]5[C@H](O)[C@@H](O)[C@@H](O[C@H]6[C@H](O)[C@@H](O)[C@@H](O[C@H]7[C@H](O)[C@@H](O)[C@@H](O[C@H]8[C@H](O)[C@@H](O)[C@@H](O[C@H]9[C@H](O)[C@@H](O)[C@@H](O[C@H]1[C@H](O)[C@H]2O)O[C@@H]9CO)O[C@@H]8CO)O[C@@H]7CO)O[C@@H]6CO)O[C@@H]5CO)O[C@@H]4CO)O[C@@H]3CO` ?
Given back: 1 to 5 mM

###

- Tested on: fungal or bacterial pathogens
- Assay type: cell-based
- assay-setup: components for enhancing function of human-derived Janthinobacterium lividum
quantity: Concentration Range of Efficacy

Asked: Name the reported Concentration Range of Efficacy value associated with the molecule `O=C(O)[C@H](O)[C@@H](O)C(=O)O`
Given back: 1 to 5 mM

Asked: Consider the molecule `O=C(O)[C@@H](O)[C@H](O)C(=O)O` and give its measured Concentration Range of Efficacy.
Given back: 1 to 5 mM

Asked: Find the recorded Concentration Range of Efficacy belonging to CO[C@@H]1O[C@H](CO)[C@@H](O)[C@H](O)[C@H]1O [β-Methyl-D-Glucoside] and report it.
Given back: 2 to 20 mM

Asked: Which Concentration Range of Efficacy value is on record for `N[C@@H](C(=O)O)[C@@H](O)[C@H](O)[C@H](O)CO` ?
Given back: 2 to 20 mM

Asked: Can you look up the measured Concentration Range of Efficacy of CC(O)CO (stereo not shown) for me?
Given back: 2 to 20 mM

Asked: Which Concentration Range of Efficacy reading was recorded for the molecule CO[C@H]1O[C@H](CO)[C@@H](O)[C@H](O)[C@H]1O [α-Methyl-D-Glucoside] ?
Given back: 1 to 5 mM

Asked: Any idea what Concentration Range of Efficacy was measured for `OC[C@H](O)C(O)[C@@H](O)CO` ?
Given back: 1 to 5 mM

Asked: Fill in the blank: the reported Concentration Range of Efficacy of Nc1ncnc2c1ncn2C1CC(O)C(CO)O1 (stereo not shown) is ____.
Given back: 2 to 20 mM

Asked: Could you share which Concentration Range of Efficacy value was measured for `OC[C@@H](O)C(O)[C@H](O)CO` ?
Given back: 1 to 5 mM

Asked: Need Concentration Range of Efficacy, item `OC[C@@H](O)[C@@H](O)CO`
Given back: 1 to 5 mM

###

- System: fungal or bacterial pathogens
- Assay type: cell-based
- assay-setup: components for enhancing function of human-derived Janthinobacterium lividum
quantity: Concentration Range of Efficacy

Asked: Missing value: Concentration Range of Efficacy, fungal or bacterial pathogens, entry `OC[C@H]1O[C@@H](O[C@H]2[C@H](O)[C@@H](O)[C@H](O)O[C@@H]2CO)[C@H](O)[C@@H](O)[C@@H]1O` . Fill in?
Given back: 2 to 20 mM

Asked: Give Concentration Range of Efficacy (fungal or bacterial pathogens) of the following compound: `CO[C@@H]1O[C@H](C(=O)O)[C@@H](O)[C@H](O)[C@H]1O`
Given back: 1 to 5 mM

Asked: Give the reported Concentration Range of Efficacy for `O=C[C@@H](O)[C@H](O[C@@H]1O[C@H](CO)[C@H](O)[C@H](O)[C@H]1O)[C@H](O)CO` (system: fungal or bacterial pathogens).
Given back: 1 to 5 mM

###

Task for the reader: assign each of the following compounds its reported Concentration Range of Efficacy.
- Test system: fungal or bacterial pathogens
- Assay type: cell-based
- assay-setup: components for enhancing function of human-derived Janthinobacterium lividum
Where a SMILES comes first, the peptide text is derived from it.

Asked: What value of Concentration Range of Efficacy has been reported for the following compound? COC1OC(CO)C(O)C(O)C1O [α-Methyl-D-Galactoside]
Given back: 2 to 20 mM

Asked: Query: Concentration Range of Efficacy; subject: OC[C@H]1O[C@@H]2O[C@H]3[C@H](O)[C@@H](O)[C@@H](O[C@H]4[C@H](O)[C@@H](O)[C@@H](O[C@H]5[C@H](O)[C@@H](O)[C@@H](O[C@H]6[C@H](O)[C@@H](O)[C@@H](O[C@H]7[C@H](O)[C@@H](O)[C@@H](O[C@H]1[C@H](O)[C@H]2O)O[C@@H]7CO)O[C@@H]6CO)O[C@@H]5CO)O[C@@H]4CO)O[C@@H]3CO [α-Cyclodextrin]
Given back: 1 to 5 mM

Asked: # lookup: Concentration Range of Efficacy of OC[C@H]1O[C@H](OC[C@H]2O[C@H](OC[C@H]3O[C@H](O[C@]4(CO)O[C@H](CO)[C@@H](O)[C@@H]4O)[C@H](O)[C@@H](O)[C@@H]3O)[C@H](O)[C@@H](O)[C@H]2O)[C@H](O)[C@@H](O)[C@H]1O [Stachyose]
Given back: 1 to 5 mM

Asked: Consider the compound OC[C@H]1O[C@@H]2O[C@H]3[C@H](O)[C@@H](O)[C@@H](O[C@H]4[C@H](O)[C@@H](O)[C@@H](O[C@H]5[C@H](O)[C@@H](O)[C@@H](O[C@H]6[C@H](O)[C@@H](O)[C@@H](O[C@H]7[C@H](O)[C@@H](O)[C@@H](O[C@H]8[C@H](O)[C@@H](O)[C@@H](O[C@H]1[C@H](O)[C@H]2O)O[C@@H]8CO)O[C@@H]7CO)O[C@@H]6CO)O[C@@H]5CO)O[C@@H]4CO)O[C@@H]3CO [β-Cyclodextrin] and give its measured Concentration Range of Efficacy.
Given back: 1 to 5 mM

Asked: Any idea what Concentration Range of Efficacy was measured for OC[C@H]1O[C@H](OCC2O[C@@H](O)[C@H](O)[C@@H](O)[C@@H]2O)[C@H](O)[C@@H](O)[C@H]1O (stereo partly drawn) [D-Melibiose] ?
Given back: 2 to 20 mM

Asked: Sample COC1OC(CO)C(O)C(O)C1O [α-Methyl-D-Mannoside] — what was its Concentration Range of Efficacy?
Given back: 1 to 5 mM

Asked: Endpoint output: Concentration Range of Efficacy of O=CC[C@H](O)[C@H](O)CO [2-Deoxy-DRibose] . Value?
Given back: 1 to 5 mM

Asked: Recorded Concentration Range of Efficacy for C[C@H](N)C(=O)N[C@@H](CCC(=O)O)C(=O)O [Ala-Glu] (H-Ala-Glu-OH) , please?
Given back: 0.1 to 1 mM

Asked: Fill in: Concentration Range of Efficacy of CO[C@@H]1O[C@H](CO)[C@@H](O)[C@H](O)[C@H]1O [β-Methyl-D-Galactoside] is ___
Given back: 1 to 5 mM

Asked: What does the data say about its Concentration Range of Efficacy? Entry: O=P(O)(O)OCC(O)CO (racemic) [D,L-α-Glycerol Phosphate]
Given back: 2 to 20 mM

Asked: // returns reported Concentration Range of Efficacy for input COC1OCC(O)C(O)C1O [β-Methyl-D-Xyloside]
Given back: 1 to 5 mM

Asked: Give the measured Concentration Range of Efficacy of NC(N)=O [Urea] .
Given back: 0.1 to 1 mM

Asked: Given the compound OC[C@@H](O)[C@H](O)[C@H](O)[C@@H](O)CO [Dulcitol] , what is its reported Concentration Range of Efficacy?
Given back: 2 to 20 mM

Asked: Can you share its Concentration Range of Efficacy? I mean this compound: OC[C@@]12OC[C@@H](O1)[C@@H](O)[C@@H](O)[C@@H]2O [Sedoheptulosan]
Given back: 1 to 5 mM

###

- System: fungal or bacterial pathogens
- Assay type: cell-based
- assay-setup: components for enhancing function of human-derived Janthinobacterium lividum
quantity: Concentration Range of Efficacy

Asked: Look up Concentration Range of Efficacy for this compound: OC[C@@H](O)[C@@H](O[C@H]1O[C@H](CO)[C@@H](O)[C@H](O)[C@H]1O)[C@H](O)[C@@H](O)CO [Maltitol]
Given back: 1 to 5 mM

Asked: Given the entry O=P(O)(O)O[C@H]1O[C@H](CO)[C@@H](O)[C@H](O)[C@H]1O [D-Glucose-1-Phosphate] , report its measured Concentration Range of Efficacy.
Given back: 2 to 20 mM

Asked: Data request, read-out Concentration Range of Efficacy, for O=C1CCC(C(=O)O)O1 (stereo not drawn) [α-Hydroxy Glutaric Acid-g-Lactone]
Given back: 2 to 20 mM

Asked: What measured Concentration Range of Efficacy goes with OC[C@H]1O[C@H](OC[C@H]2OC(O)(CO)[C@@H](O)[C@@H]2O)[C@H](O)[C@@H](O)[C@@H]1O (some centres unmarked) [Palatinose] ?
Given back: 1 to 5 mM

Asked: Can you look up the measured Concentration Range of Efficacy of CC(O)C(N)=O (racemic) [D,L-Lactamide] for me?
Given back: 0.1 to 1 mM

Asked: Entry O=C(CO)[C@@H](O[C@H]1O[C@H](CO)[C@@H](O)[C@H](O)[C@H]1O)[C@H](O)[C@H](O)CO [Turanose] : reported Concentration Range of Efficacy = ?
Given back: 1 to 5 mM

Asked: Please give the measured Concentration Range of Efficacy for this compound: OC[C@H]1O[C@@](CO)(O[C@H]2O[C@H](CO)[C@@H](O)[C@H](O)[C@H]2O)[C@@H](O[C@H]2O[C@H](CO)[C@@H](O)[C@H](O)[C@H]2O)[C@@H]1O [D-Melezitose]
Given back: 1 to 5 mM

Asked: Need Concentration Range of Efficacy of O=C(O)[C@H]1OC(O)[C@H](O)[C@@H](O)[C@@H]1O (stereo partly drawn) [D-Glucoronic Acid] , thanks.
Given back: 2 to 20 mM
